Tested on: Haemonchus contortus
Protocol text: Haemonchus contortus - Test (HAEMCO)
Format: in vivo
Experimental conditions: 20 ppm; after 5 days; 100% = all larvae killed
Value kind: activity (efficacy: larval mortality)
The answer should read as a number with its unit following.

Worked cases, activity (efficacy: larval mortality) given:
>  <Molecule>
CCOC(c1ccc(Cl)cc1Cl)C(C)NC(=O)c1ccccc1[N+](=O)[O-] (stereo not drawn)

>  <Value kind>
activity (efficacy: larval mortality)

>  <Result>
80%

$$$$
>  <Molecule>
COC(c1ccc(Cl)cc1Cl)C(C)NC(=O)c1ccnn1C(F)F (stereo not drawn)

>  <Value kind>
activity (efficacy: larval mortality)

>  <Result>
100%

$$$$
>  <Molecule>
COC(c1ccccc1Cl)C(C)NC(=O)c1ccsc1I (stereo not drawn)

>  <Value kind>
activity (efficacy: larval mortality)

>  <Result>
80%

$$$$
>  <Molecule>
COC(c1ccc(Cl)cc1)C(C)NC(=O)c1sccc1Cl (stereo not drawn)

>  <Value kind>
activity (efficacy: larval mortality)

>  <Result>
90%

$$$$
>  <Molecule>
COC(c1ccc(Cl)cc1)C(C)NC(=O)c1ccoc1I (stereo not drawn)

>  <Value kind>
activity (efficacy: larval mortality)

>  <Result>
100%

$$$$

Now examine the next entry.
Endpoint output: activity (efficacy: larval mortality) of COC(c1ccc(Cl)cc1Cl)C1(NC(=O)c2cccnc2Cl)CC1 (stereo not drawn) . Value?
80%

====

Tested on: Haemonchus contortus
Protocol text: Haemonchus contortus - Test (HAEMCO)
Format: in vivo
Experimental conditions: 20 ppm; after 5 days; 100% = all larvae killed
Value kind: activity (efficacy: larval mortality) (%)
Answer in %, number only, no unit symbol.

Can you share its activity (efficacy: larval mortality)? I mean this molecule: COC(c1ccc(Cl)cc1)C(C)NC(=O)c1ccccc1C(F)(F)F (stereo not drawn) [Compound 128]
90

Which value of activity (efficacy: larval mortality) has been reported for COC(c1ccc(Cl)cc1)C(C)NC(=O)c1ccccc1C (stereo not drawn) [Compound 129] in the records?
80

Suppose we examine the molecule COC(c1ccc(Cl)cc1)C(C)NC(=O)c1ccccc1Cl (stereo not drawn) [Compound 130] ; what activity (efficacy: larval mortality) value has been reported?
80

Look at this molecule and give its reported activity (efficacy: larval mortality). COC(c1ccc(Cl)cc1)C(C)NC(=O)c1ccccc1C(F)F (stereo not drawn) [Compound 136]
80

For the molecule shown here, CCOC(c1ccc(Cl)cc1Cl)C(C)NC(=O)c1ccsc1I (stereo not drawn) [Compound 205] , give the reported activity (efficacy: larval mortality).
90

Dear colleague, I am looking for the recorded activity (efficacy: larval mortality) of the following molecule: COC(CNC(=O)c1nccnc1C(F)(F)F)c1cc(Cl)cc(Cl)c1 (stereo not drawn) [Compound 120]
80

Sample COC(c1ccc(Cl)cc1)C(C)NC(=O)c1ccccc1Br (stereo not drawn) [Compound 131] — what was its activity (efficacy: larval mortality)?
90

Would you kindly share the measured activity (efficacy: larval mortality) for COC(c1ccc(Cl)cc1Cl)C(C)NC(=O)c1nccnc1C(F)(F)F (stereo not drawn) [Compound 73] ?
100

Which activity (efficacy: larval mortality) value is on record for C=CCOC(CNC(=O)c1sccc1C)c1ccc(Cl)cc1 (stereo not drawn) [Compound 2] ?
90

====

Listed compounds paired with reported logP
Protocol text: Measurement of log P values by HPLC on reversed phase columns (EEC directive 79/831 Annex V.A8; methods [a] pH 2.3, [b] pH 2.7, [c] pH 7.8)
Assay type: physicochemical
Experimental conditions: method [b]: LC-MS, pH 2.7, 0.1% formic acid in water / acetonitrile
Protocol: Measurement of log P-values: Measurement of log P values was performed according EEC directive 79/831 Annex V.A8 by HPLC (High Performance Liquid Chromatography) on reversed phase columns with the following methods: ^[a] Measurement was done at pH 2.3 with 0.1% phosphoric acid and acetonitrile as eluent with a linear gradient from 10% acetonitrile to 95% acetonitrile. […]

>  <Compound>
COC(CNC(=O)c1c(C(F)F)nn(C)c1Cl)c1ccc(Cl)cc1Cl (centres unmarked) [Compound 44]

>  <Result>
3.48^[b]

$$$$
>  <Compound>
CCC(NC(=O)c1nccnc1C(F)(F)F)C(OC)c1ccc(Cl)cc1Cl (centres unmarked) [Compound 92]

>  <Result>
3.99^[b]

$$$$
>  <Compound>
COC(c1ccc(Cl)cc1Cl)C1(NC(=O)c2cccnc2C(F)F)CC1 (centres unmarked) [Compound 97]

>  <Result>
3.06^[b]

$$$$

logP lookup needed for COC(c1cc(Cl)cc(Cl)c1)C(C)NC(=O)c1c(C(F)F)nn(C)c1Cl (centres unmarked) [Compound 42] , thanks.
3.92^[b]

Param item = COC(c1ccc(Cl)cc1)C(C)(C)NC(=O)c1sccc1Cl (centres unmarked) [Compound 86] ; retrieve measured logP.
4.72^[b]

I am curious: what logP value has been reported for COC(c1ccc(Cl)cc1Cl)C(C)NC(=O)c1cn(C)nc1C(F)F (centres unmarked) [compound 17] ?
3.25^[b]

Reported logP for COC(c1ccc(Cl)cc1Cl)C(C)(C)NC(=O)c1ccccc1Cl (centres unmarked) [Compound 75] : what is it?
4.59^[b]

Suppose we examine the compound COC(CNC(=O)c1ccoc1I)c1ccc(Cl)cc1 (centres unmarked) [Compound 71] ; what logP value has been reported?
2.92^[b]

GET /values?readout=logP&item= CCC(NC(=O)c1c(C(F)F)nn(C)c1Cl)C(OC)c1ccc(Cl)cc1Cl (centres unmarked) [Compound 48]
4.18^[b]

====

Protocol text: Measurement of log P values by HPLC on reversed phase columns (EEC directive 79/831 Annex V.A8; methods [a] pH 2.3, [b] pH 2.7, [c] pH 7.8)
Assay type: physicochemical
Experimental conditions: method [c]: LC-MS at pH 7.8, 0.001 molar ammonium hydrogen carbonate in water / acetonitrile
Here, each record is paired with measured log P data.

>  <Molecule>
COC(c1ccc(Cl)cc1Cl)C(C)(C)N(C)C(=O)c1ccccc1C(F)(F)F (centres unmarked)

>  <Result>
5.34^[c];

$$$$
>  <Molecule>
COC(c1ccc(Cl)cc1)C(C)NC(=O)c1ccccc1C(F)(F)F (centres unmarked)

>  <Result>
3.35^[c];

$$$$
>  <Molecule>
COC(c1ccccc1Cl)C(C)NC(=O)c1ccccc1Cl (centres unmarked)

>  <Result>
3.26^[c];

$$$$
>  <Molecule>
COC(c1ccc(F)cc1)C(C)NC(=O)c1ccccc1Cl (centres unmarked)

>  <Result>
2.95^[c];

$$$$

From here, focus on the item given below.
Fill blank: measured log P of the molecule COC(c1ccc(F)cc1)C(C)NC(=O)c1cccnc1Cl (centres unmarked) is ____.
2.23^[c];

====

Protocol text: Measurement of log P values by HPLC on reversed phase columns (EEC directive 79/831 Annex V.A8; methods [a] pH 2.3, [b] pH 2.7, [c] pH 7.8)
Assay type: physicochemical
Experimental conditions: method [c]: LC-MS at pH 7.8, 0.001 molar ammonium hydrogen carbonate in water / acetonitrile
Value kind: log P

Some solved cases for reference:
>  <Molecule>
COC(c1ccccc1Cl)C(C)NC(=O)c1cccnc1C(F)(F)F (stereo not drawn)

>  <log P>
3.24^[c];

$$$$
>  <Molecule>
COC(c1ccccc1Cl)C(C)NC(=O)c1ccccc1C(F)F (stereo not drawn)

>  <log P>
3.39^[c];

$$$$
>  <Molecule>
COC(c1ccccc1Cl)C(C)NC(=O)c1nccnc1Cl (stereo not drawn)

>  <log P>
2.73^[c];

$$$$
>  <Molecule>
COC(c1ccc(F)cc1)C(C)NC(=O)c1ccccc1C(F)(F)F (stereo not drawn)

>  <log P>
3.16^[c]

$$$$
>  <Molecule>
CCOC(c1ccc(Cl)cc1Cl)C(C)NC(=O)c1c(F)cccc1C(F)(F)F (stereo not drawn)

>  <log P>
4.53^[c];

$$$$

Item under review: COC(c1ccc(Cl)cc1)C(C)NC(=O)c1ccccc1Br (stereo not drawn) . Reported log P?
3.30^[c];

Can you share its log P? I mean this molecule: COC(c1ccc(Cl)cc1Cl)C1(NC(=O)c2ccccc2Br)CC1 (stereo not drawn)
3.76^[c];

Request the reported log P associated with COC(c1ccccc1Cl)C(C)NC(=O)c1ccccc1[N+](=O)[O-] (stereo not drawn)
2.78^[c];

Query (molecule): COC(c1ccccc1Cl)C(C)NC(=O)c1cccnc1Cl (stereo not drawn) ; field requested: log P
2.53^[c];

Find the recorded log P belonging to COC(c1ccc(Cl)cc1)C(C)NC(=O)c1c(F)cccc1C(F)(F)F (stereo not drawn) and report it.
3.61^[c];

====

Protocol text: Measurement of log P values by HPLC on reversed phase columns (EEC directive 79/831 Annex V.A8; methods [a] pH 2.3, [b] pH 2.7, [c] pH 7.8)
Type: physicochemical
Experimental conditions: method [c]: LC-MS, pH 7.8, 0.001 molar ammonium hydrogen carbonate / acetonitrile
Listed below: logP values for each entry.

>  <Compound>
COC(c1ccc(Cl)cc1Cl)C(C)(C)NC(=O)c1sccc1Cl (centres unmarked) [Compound 78]

>  <logP>
5.31^[c];

$$$$
>  <Compound>
COC(c1ccc(Cl)cc1)C(C)(C)NC(=O)c1cccnc1Cl (centres unmarked) [Compound 81]

>  <logP>
3.23^[c];

$$$$
>  <Compound>
COC(CNC(=O)c1ccsc1Cl)c1ccc(Cl)cc1 (centres unmarked) [Compound 70]

>  <logP>
3.13^[c];

$$$$
>  <Compound>
COC(c1ccc(Cl)cc1)C(C)(C)NC(=O)c1sccc1Cl (centres unmarked) [Compound 86]

>  <logP>
4.43^[c];

$$$$
>  <Compound>
COC(c1ccc(Cl)cc1)C(C)NC(=O)c1sccc1Br (centres unmarked) [Compound 65]

>  <logP>
3.83^[c];

$$$$
>  <Compound>
COC(c1ccc(Cl)cc1Cl)C(C)(C)NC(=O)c1ccccc1C(F)(F)F (centres unmarked) [Compound 76]

>  <logP>
4.62^[c];

$$$$
>  <Compound>
COC(c1ccc(Cl)cc1)C(C)(C)NC(=O)c1ccccc1C(F)(F)F (centres unmarked) [Compound 85]

>  <logP>
3.99^[c];

$$$$
>  <Compound>
COC(c1ccc(Cl)cc1Cl)C(C)(C)NC(=O)c1ccccc1Cl (centres unmarked) [Compound 75]

>  <logP>
4.54^[c];

$$$$
>  <Compound>
COC(CNC(=O)c1ccoc1I)c1ccc(Cl)cc1 (centres unmarked) [Compound 71]

>  <logP>
2.90^[c];

$$$$
>  <Compound>
COC(c1ccc(Cl)cc1Cl)C(C)(C)NC(=O)c1c(F)cccc1F (centres unmarked) [Compound 77]

>  <logP>
4.24^[c];

$$$$

Form field: reported logP of COC(CNC(=O)c1sccc1Cl)c1ccc(Cl)cc1 (centres unmarked) [Compound 69]
3.39^[c];

Which logP reading was recorded for the compound COC(c1ccc(Cl)cc1)C(C)(C)NC(=O)c1ccccc1Cl (centres unmarked) [Compound 84] ?
3.87^[c];

Look up logP: COC(c1ccc(Cl)cc1)C(C)(C)NC(=O)c1ccccc1F (centres unmarked) [Compound 83]
3.99^[c];

What measured logP goes with COC(c1ccc(Cl)cc1Cl)C(C)NC(=O)c1sccc1C (centres unmarked) [Compound 58] ?
4.02^[c];

For the compound shown here, COC(c1ccc(Cl)cc1Cl)C(C)(C)NC(=O)c1occc1Br (centres unmarked) [Compound 80] , give the reported logP.
4.37^[c];

Find the recorded logP belonging to COC(c1ccc(Cl)cc1)C(C)(C)NC(=O)c1c(F)cccc1F (centres unmarked) [Compound 82] and report it.
3.79^[c];

The reported numbers originate from patent US20160100579A1.
